target-desc: EGFR L858R (NCI-H3255) (Homo sapiens, UniProt P00533, L858R)
Construct: detects endogenous levels of phospho-EGF Receptor (Tyr1068) protein; host or cells: NCI-H3255
Sequence (P00533 25-1210 L858R): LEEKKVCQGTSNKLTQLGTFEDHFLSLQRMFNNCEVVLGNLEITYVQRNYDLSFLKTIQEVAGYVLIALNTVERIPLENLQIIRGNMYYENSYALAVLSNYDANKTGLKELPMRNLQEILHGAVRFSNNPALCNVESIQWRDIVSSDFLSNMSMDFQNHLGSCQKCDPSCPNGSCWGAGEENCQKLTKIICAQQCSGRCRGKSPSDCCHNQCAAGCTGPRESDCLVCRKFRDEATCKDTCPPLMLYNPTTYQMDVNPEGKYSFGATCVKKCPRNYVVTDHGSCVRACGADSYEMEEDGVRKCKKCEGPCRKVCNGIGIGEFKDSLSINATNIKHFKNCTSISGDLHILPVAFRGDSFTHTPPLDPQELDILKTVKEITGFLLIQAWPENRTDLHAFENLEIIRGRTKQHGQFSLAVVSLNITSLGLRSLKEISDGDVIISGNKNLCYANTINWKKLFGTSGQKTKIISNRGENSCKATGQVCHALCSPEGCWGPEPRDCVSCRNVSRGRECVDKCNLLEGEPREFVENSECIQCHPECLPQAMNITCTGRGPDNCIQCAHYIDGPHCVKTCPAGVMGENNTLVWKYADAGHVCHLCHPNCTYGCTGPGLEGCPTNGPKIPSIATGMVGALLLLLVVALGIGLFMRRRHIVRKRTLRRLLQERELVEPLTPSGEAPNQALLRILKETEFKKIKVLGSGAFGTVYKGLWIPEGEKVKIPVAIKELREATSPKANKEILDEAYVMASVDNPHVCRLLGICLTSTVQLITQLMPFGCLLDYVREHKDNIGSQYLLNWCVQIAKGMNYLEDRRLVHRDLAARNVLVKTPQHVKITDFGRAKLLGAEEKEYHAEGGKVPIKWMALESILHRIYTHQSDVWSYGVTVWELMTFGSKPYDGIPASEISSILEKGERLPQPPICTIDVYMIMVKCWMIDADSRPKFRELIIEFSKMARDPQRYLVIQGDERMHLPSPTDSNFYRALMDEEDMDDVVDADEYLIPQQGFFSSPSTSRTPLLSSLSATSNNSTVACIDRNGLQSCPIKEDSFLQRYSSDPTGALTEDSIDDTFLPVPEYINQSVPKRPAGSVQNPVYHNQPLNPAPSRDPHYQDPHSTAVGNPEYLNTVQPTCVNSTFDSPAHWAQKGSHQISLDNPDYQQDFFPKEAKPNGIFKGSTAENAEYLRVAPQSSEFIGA
test-protocol: pEGFR Y1068 ELISA assay, NCI-H3255 cells
Assay type: cell-based
Each record here notes measured pIC50.
Note on pIC50: it is the negative log10 of concentration, concentration in mol/L.

C=CC(=O)NC1(C)CN(c2nc(Nc3cnn(C)c3)c3ncn(C(C)C)c3n2)C1 | 7.10
C=CC(=O)N[C@@H]1CN(c2nc(Nc3cn(C4CCN(C)C4)nc3C)c3ncn(C(C)C)c3n2)C[C@H]1F (some centres unmarked) | 8.70
C=CC(=O)N[C@@H]1CN(c2nc(Nc3cn(CC(C)O)nc3OC)c3ncn(C(C)C)c3n2)C[C@H]1F (some centres unmarked) | 8.05
C=CC(=O)N[C@@H]1CN(c2nc(Nc3cnn(C)c3)c3ncn(C(C)C)c3n2)C[C@@H]1OC (single isomer, unassigned) | 8.52
C=CC(=O)N[C@@H]1CN(c2nc(Nc3cnn(C)c3)c3ncn(C(C)(C)C)c3n2)CC1F (stereo in doubt) | 8.52
C=CC(=O)N[C@H]1CCN(c2nc(Nc3ccc(N4CCN(C)CC4)cc3)c3ncn(C(C)C)c3n2)C1 | 7.72
C=CC(=O)N[C@@H]1CN(c2nc(Nc3cn(C4CCN(C)C4)nc3OC)c3ncn(CC)c3n2)C[C@H]1F (some centres unmarked) | 9.00
C=CC(=O)N[C@H]1CCN(c2nc(Nc3cnn(C)c3)c3ncn(C(C)C)c3n2)C1 | 7.23

For "C=CC(=O)N[C@@H]1CN(c2nc(Nc3ccc(N4CCN(C)CC4)cc3)c3ncn(C(C)C)c3n2)C[C@H]1OC" , what is its reported pIC50?
9.00

----------
pIC50 values, listed per item
target-desc: EGFR L858R+T790M, endogenous (NCI-H1975) (Homo sapiens, UniProt P00533, L858R/T790M)
Construct: NCI-H1975 (EGFR L858R+T790M, endogenous)
Sequence (P00533 25-1210 T790M/L858R): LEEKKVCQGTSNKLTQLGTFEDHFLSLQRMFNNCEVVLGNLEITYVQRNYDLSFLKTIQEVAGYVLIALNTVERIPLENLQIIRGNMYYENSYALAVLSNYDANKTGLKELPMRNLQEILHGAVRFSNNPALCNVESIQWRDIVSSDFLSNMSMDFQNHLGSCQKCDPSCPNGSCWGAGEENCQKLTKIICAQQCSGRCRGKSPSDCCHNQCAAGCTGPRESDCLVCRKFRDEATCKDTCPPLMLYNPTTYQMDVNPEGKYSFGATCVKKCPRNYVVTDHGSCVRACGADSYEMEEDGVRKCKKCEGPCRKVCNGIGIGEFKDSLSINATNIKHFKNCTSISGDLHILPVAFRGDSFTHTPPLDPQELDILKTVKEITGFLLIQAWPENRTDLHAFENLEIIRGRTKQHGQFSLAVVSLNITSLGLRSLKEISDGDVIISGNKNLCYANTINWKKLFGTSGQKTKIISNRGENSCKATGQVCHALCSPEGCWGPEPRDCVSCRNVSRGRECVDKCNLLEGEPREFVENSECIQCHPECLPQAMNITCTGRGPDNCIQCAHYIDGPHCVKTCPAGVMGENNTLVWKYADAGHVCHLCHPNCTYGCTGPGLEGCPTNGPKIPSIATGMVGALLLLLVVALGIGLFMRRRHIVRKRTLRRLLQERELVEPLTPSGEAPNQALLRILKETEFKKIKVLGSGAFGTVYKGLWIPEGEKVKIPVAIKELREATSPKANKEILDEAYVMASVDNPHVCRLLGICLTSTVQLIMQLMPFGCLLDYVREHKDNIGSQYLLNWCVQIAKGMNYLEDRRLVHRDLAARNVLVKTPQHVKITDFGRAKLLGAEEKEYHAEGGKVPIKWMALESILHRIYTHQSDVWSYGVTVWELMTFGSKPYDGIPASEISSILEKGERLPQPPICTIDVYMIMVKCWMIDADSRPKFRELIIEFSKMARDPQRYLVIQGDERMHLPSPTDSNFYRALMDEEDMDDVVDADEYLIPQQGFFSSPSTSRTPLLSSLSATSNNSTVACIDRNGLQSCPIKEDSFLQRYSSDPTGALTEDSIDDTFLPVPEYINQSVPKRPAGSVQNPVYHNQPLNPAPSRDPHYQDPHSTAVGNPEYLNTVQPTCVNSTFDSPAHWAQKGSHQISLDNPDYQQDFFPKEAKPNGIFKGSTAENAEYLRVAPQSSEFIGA
test-protocol: pEGFR Y1068 ELISA assay, NCI-H1975 cells
condition-description: inhibition of phosphorylation of EGFR at Tyr1068; NCI-H1975 NSCLC cells; 2 hr compound incubation
Convention used: pIC50 is expressed as -log10 of the molar concentration.

Sample records with pIC50:
C=CC(=O)N(C)C1CN(c2nc(Nc3ccc(N4CCN(C)CC4)cc3)c3ncn(C(C)C)c3n2)C1 | 7.41
C=CC(=O)N[C@@H]1CN(c2nc(Nc3cn(CC(C)O)nc3OC)c3ncn(C(C)C)c3n2)C[C@H]1F (some centres unmarked) | 7.82
C=CC(=O)N1C[C@@H]2CN(c3nc(Nc4cnn(C)c4)c4ncn(C)c4n3)C[C@@H]2C1 | 6.79
C=CC(=O)N(C)[C@H]1C[C@H](Oc2nc(Nc3ccc(N4CCN(C)CC4)cc3)c3ncn(C(C)C)c3n2)C1 | 7.46

Return reported pIC50; argument: "C=CC(=O)N1C[C@@H]2CN(c3nc(Nc4cnn(C)c4C)c4ncn(C(C)C)c4n3)C[C@@H]2C1"
6.33

Consider the compound C=CC(=O)N[C@@H]1CN(c2nc(Nc3cn(CC(C)O)nc3OC)c3ncn(C)c3n2)C[C@H]1F (some centres unmarked) and give its measured pIC50.
6.88

Fill in the blank: the reported pIC50 of C=CC(=O)N1C[C@H]2CN(c3nc(Nc4ccc(N5CCN(C)CC5)cc4)c4ncn(C(C)C)c4n3)C[C@]2(OC)C1 (single isomer, unassigned) is ____.
8.10

Can you look up the measured pIC50 of "C=CC(=O)N[C@H]1CCN(c2nc(Nc3ccc(N4CCN(C(C)C)CC4)cc3)c3ncn(C(C)C)c3n2)C1" for me?
8.10

----------
target-desc: EGFR L858R+T790M, endogenous (NCI-H1975) (Homo sapiens, UniProt P00533, L858R/T790M)
Construct: NCI-H1975 (EGFR L858R+T790M, endogenous)
test-protocol: pEGFR Y1068 ELISA assay, NCI-H1975 cells
condition-description: inhibition of phosphorylation of EGFR at Tyr1068; NCI-H1975 NSCLC cells; 2 hr compound incubation
log10 IC50 overview
In our notation, the value equals log10 of IC50 in µM.

C=CC(=O)N1C[C@@H]2CN(c3nc(Nc4ccc(N5CCN(C)CC5)cc4)c4ncn(C(C)(C)C)c4n3)C[C@@H]2C1 | -1.49
C=CC(=O)N1C[C@@H]2CN(c3nc(Nc4cnn(C)c4)c4ncn(C(C)C)c4n3)C[C@@H]2C1 | -1.31
C=CC(=O)N[C@@H]1CN(c2nc(Nc3cnn(CCN(C)C)c3)c3ncn(C(C)(C)C)c3n2)C[C@H]1F | -1.74

Query (compound): "C=CC(=O)N[C@H]1CCN(c2nc(Nc3cnn(C)c3)c3ncn(C4(C)CC4)c3n2)C1" ; field requested: log10 IC50
-0.50

# query: log10 IC50 of entry C=CC(=O)N[C@@H]1CN(c2nc(Nc3cn(C4CCN(C)C4)nc3C)c3ncn(CC)c3n2)C[C@H]1F (stereo partly shown)
-1.66

Given the entry C=CC(=O)NC1(C)CN(c2nc(Nc3cnn(C4CCN(C)C4)c3)c3ncn(C(C)C)c3n2)C1 (stereo not shown) , report its measured log10 IC50.
-1.62

Quick one: log10 IC50 of "C=CC(=O)N[C@H]1CCN(c2nc(Nc3cn(C)nc3OC)c3ncn(C(C)C)c3n2)C1" ?
-0.79

----------
target-desc: EGFR L858R+T790M, endogenous (NCI-H1975) (Homo sapiens, UniProt P00533, L858R/T790M)
Construct: NCI-H1975 (EGFR L858R+T790M, endogenous)
test-protocol: pEGFR Y1068 ELISA assay, NCI-H1975 cells
condition-description: inhibition of phosphorylation of EGFR at Tyr1068; NCI-H1975 NSCLC cells; 2 hr compound incubation
pIC50: −log10 of the molar value.
Record MET whenever pIC50 is at 7 or higher; record NOT MET when lower.

Sample answers from the record:
C=CC(=O)N[C@H]1CCN(c2nc(Nc3ccc(N4CCN(CC)CC4)cc3)c3ncn(C(C)C)c3n2)C1 | MET
C=CC(=O)N[C@H]1CCN(c2nc(Nc3ccc(N4CCN(C)CC4)cc3)c3ncn(C(C)C)c3n2)C1 | MET
C=CC(=O)N[C@@H]1CN(c2nc(Nc3cnn([C@@H]4CCN(C)C4)c3C)c3ncn(C(C)C)c3n2)C[C@H]1F | MET
C=CC(=O)N[C@H]1CCN(c2nc(Nc3cn(C)nc3C)c3ncn(C(C)C)c3n2)C1 | NOT MET
C=CC(=O)N(C)[C@H]1C[C@H](Nc2nc(Nc3ccc(N4CCN(C)CC4)cc3)c3ncn(C(C)C)c3n2)C1 | MET

Shifting focus to the compound that follows.
Identify whether the reported pIC50 of the following compound is 7 or greater: "C=CC(=O)N[C@@H]1CN(c2nc(Nc3cnn(C4CCN(C)CC4)c3)c3ncn(C(C)(C)C)c3n2)C[C@H]1F"
MET

----------
target-desc: EGFR wildtype, endogenous (A549) (Homo sapiens)
Construct: A549 (EGFR wildtype, endogenous)
Sequence (P00533 25-1210): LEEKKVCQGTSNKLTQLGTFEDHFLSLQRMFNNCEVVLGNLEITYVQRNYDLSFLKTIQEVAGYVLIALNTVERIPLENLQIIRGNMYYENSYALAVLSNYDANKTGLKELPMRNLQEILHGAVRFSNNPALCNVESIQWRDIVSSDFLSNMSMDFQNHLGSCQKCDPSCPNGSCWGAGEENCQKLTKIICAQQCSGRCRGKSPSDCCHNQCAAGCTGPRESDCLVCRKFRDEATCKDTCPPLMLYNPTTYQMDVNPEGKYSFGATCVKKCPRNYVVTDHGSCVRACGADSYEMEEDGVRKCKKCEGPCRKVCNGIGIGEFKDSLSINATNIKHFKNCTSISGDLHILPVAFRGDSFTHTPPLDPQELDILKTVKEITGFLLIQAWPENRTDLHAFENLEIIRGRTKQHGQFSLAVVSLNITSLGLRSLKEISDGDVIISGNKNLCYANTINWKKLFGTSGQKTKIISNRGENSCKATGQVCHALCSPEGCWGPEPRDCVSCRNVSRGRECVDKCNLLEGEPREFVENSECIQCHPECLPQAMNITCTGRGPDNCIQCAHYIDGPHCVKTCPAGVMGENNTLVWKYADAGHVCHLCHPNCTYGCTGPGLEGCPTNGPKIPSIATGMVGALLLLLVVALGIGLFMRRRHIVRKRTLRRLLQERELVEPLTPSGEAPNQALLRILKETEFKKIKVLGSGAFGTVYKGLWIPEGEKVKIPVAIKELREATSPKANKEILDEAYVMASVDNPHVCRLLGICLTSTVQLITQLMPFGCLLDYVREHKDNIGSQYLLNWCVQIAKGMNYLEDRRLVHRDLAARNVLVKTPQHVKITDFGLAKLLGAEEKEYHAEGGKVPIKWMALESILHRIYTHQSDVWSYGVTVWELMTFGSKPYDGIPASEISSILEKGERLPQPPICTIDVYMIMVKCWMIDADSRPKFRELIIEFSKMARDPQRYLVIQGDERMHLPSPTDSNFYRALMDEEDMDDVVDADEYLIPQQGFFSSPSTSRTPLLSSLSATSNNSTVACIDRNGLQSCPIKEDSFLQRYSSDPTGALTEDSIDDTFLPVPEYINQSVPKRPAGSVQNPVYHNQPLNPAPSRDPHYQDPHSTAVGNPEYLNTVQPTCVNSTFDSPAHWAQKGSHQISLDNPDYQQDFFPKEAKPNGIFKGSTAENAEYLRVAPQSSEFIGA
test-protocol: pEGFR Y1068 ELISA assay, A549 cells
condition-description: inhibition of phosphorylation of EGFR at Tyr1068; A549 NSCLC cells; 2 hr compound incubation, then stimulated 10 min with EGF (40 ng/mL)
Listed below: pIC50 values for each entry.
# reply with the number alone; pIC50 is -log10 of concentration in mol/L

For orientation, consider the following solved cases.
C=CC(=O)NC1CN(c2nc(Nc3ccc(N4CCN(C)CC4)cc3)c3ncn(C(C)C)c3n2)C1 | 5.85
C=CC(=O)N[C@H]1CCN(c2nc(Nc3cnn(C)c3)c3ncn(C4(C)CC4)c3n2)C1 | 5.86
C=CC(=O)N1C[C@@H]2CN(c3nc(Nc4cnn(C)c4)c4ncn(C)c4n3)C[C@@H]2C1 | 5.57
C=CC(=O)N[C@H]1CCN(c2nc(Nc3ccc(N4CCN(C)CC4)cc3)c3ncn(C(C)C)c3n2)C1 | 6.56
C=CC(=O)N[C@@H]1CN(c2nc(Nc3cn(C4CCN(C)C4)nc3OC)c3ncn(C)c3n2)C[C@H]1F (stereo partly drawn) | 7.00
C=CC(=O)N1C[C@H](Nc2nc(Nc3cnn(C)c3)c3ncn(C(C)C)c3n2)[C@@H](F)C1 (single isomer, unassigned) [Example 30] | 5.41

Which pIC50 value belongs to "C=CC(=O)N[C@H]1CCN(c2nc(Nc3ccc(N4CCN(C)CC4)cc3)c3ncn(C4CCC4)c3n2)C1" ?
6.93

Which value of pIC50 has been reported for "C=CC(=O)N[C@@H]1CN(c2nc(Nc3cnn([C@@H]4CCN(C)C4)c3C)c3ncn(C(C)C)c3n2)C[C@H]1F" in the records?
6.19

# query: pIC50 of entry C=CC(=O)N[C@@H]1CN(c2nc(Nc3cnn(C)c3)c3ncn(C(C)(C)C)c3n2)CC1F (stereo in doubt)
6.10

Bench note: what pIC50 did "C=CC(=O)N[C@H]1CCN(c2nc(Nc3cnn(C4CCN(C)CC4)c3)c3ncn(C(C)C)c3n2)C1" show?
5.52

Given the entry C=CC(=O)N[C@@H]1CN(c2nc(Nc3cn(C4CCN(C)C4)nc3C)c3ncn(C)c3n2)C[C@H]1F (stereo partly drawn) , report its measured pIC50.
6.24

Look up pIC50 for this compound: "C=CC(=O)N1CC[C@@H](Oc2nc(Nc3ccc(N4CCN(C)CC4)cc3)c3ncn(C(C)C)c3n2)C1"
6.17

Requested field: pIC50. Item: C=CC(=O)N[C@@H]1CN(c2nc(Nc3cn(CC(C)O)nc3OC)c3ncn(C(C)C)c3n2)C[C@H]1F (stereo partly drawn)
5.92
